Target: T1, phospholipase A2 (PLA2) (Homo sapiens (Human), UniProt O15496 43-165)
T1 construct: PLA2 as used in Biacore, MCAB binning, peptide scan and the purified-antibody functional assay; also called PLA2 antigen
T1 sequence: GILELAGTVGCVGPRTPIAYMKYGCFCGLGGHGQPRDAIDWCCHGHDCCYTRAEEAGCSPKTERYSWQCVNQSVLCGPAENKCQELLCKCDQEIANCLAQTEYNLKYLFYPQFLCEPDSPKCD
Assay: Biacore 2000, Ab captured from supernatant, 300 nM PLA2
observed.property: Response

binder	Response
anti-PLA2 mAb 2.7 (antibody, IgG4, V domains shown, also called 2.7.1) VH: GVQLVQSGAEVKKPGESLKISCKGSGYSFTNYWIGWVRQMPGKGLEWMGIIYPGDSDTRYSPSFQGQVTISADKSISTAYLQWSSLKASDTAIYYCARGGVGAFDIWGQGTMVTVSS VL: EIVLTQSPGTLSLSPGERATLSCRASQIIRRSSLAWYQEKPGQAPRLLIYGASSRATGIPDRFSGSGSGTDFTLTISRLEPEDFAVYYCQQYGSSPPFTFGPGTKVDIKR	126 RU
anti-PLA2 mAb 1.7 (antibody, IgG2, V domains shown, also called 1.7.1) VH: EVQLVQSGAEVKKPGESLKISCKGSGYSFISYWIGWVRQMPGKGLEWMGIIYPGDSDTRYSPSFQGQVTISADKSISTAYLQWSSLKASDTAMYYCARSWTYALDVWGQGTAVTVSS VL: EIVLTQSPGTLSLSPGERATLSCRPSQSVRSNYLTWYQQKPGQAPRLLIYGASTRATGIPDRFSGSGSGTDFTLTVSRLEPEDFAVYYCQQYGSSPLTFGGGTKVEIKR	118 RU
anti-PLA2 mAb 1.27 (antibody, IgG2, V domains shown) VH: EVQLVQSGAEVKKPGESLKISCKGSGYSFTSYWIGWVRQMPGKGLEWMGIIYPGDSDTRYSPSFQGQVTISADKSISTAYLQWSSLKASDTAMYYCARSWTYGMDVWGQGTTVTVSS VL: EIVLTQSPGTLSLSPGERATLSCRASQSVRSNYLTWYQQKPGQAPRLLIYGASTRATGIPDRFSGSGSGTDFTLTISRLEPEDFAVYYCQQYGSSPLTFGGGTKVEIKR	78 RU

get_value(item= anti-PLA2 mAb 2.23 (antibody, IgG4, V domains shown) VH: QVQLEESGGGVVQPGRSLRLSCAASGFTFSSYGMHWVRQGPGKGLEWVAVIWYDGSNKKYADSVKGRFTISRDNSKNTLYLQMNSLRAEDTAVYYCARDGPIFGVVMGYWGQGTLVTVSS VL: DIQMTQSPSSLSASVGDRVTITCRTSQSISNYLNWFQQKPGKAPILLIYAASSLQSGVPSRFSGSGSGTDFTLTISSLQPEDFATYYCHQSYSIPITFGQGTRLEIKR , readout=Response) returns 7 RU
